Entry source: the NIST ThermoML archive (doi:10.1016/j.jct.2009.07.002)

Quick reference for isobaric coefficient of expansion among some compounds
Assay: isobaric coefficient of expansion
Details: 298.15 K; 20000 kPa; Liquid; DSC with Pressure Shift

GET /value?item= `CCO` &field=isobaric coefficient of expansion returns 0.000973 1/K

// field: isobaric coefficient of expansion; key: `CCCCCCCCCCO` ; value = 0.000755 1/K

Just so you know, measured isobaric coefficient of expansion for `CCCCCCCCO` came out at 0.000764 1/K

`CCCCCO` has a reported isobaric coefficient of expansion of 0.000825 1/K

Measured isobaric coefficient of expansion, `CCCCCN` : 0.00104 1/K

---

Experiment: isobaric coefficient of expansion
Conditions: 328.15 K; 20000 kPa; Liquid; DSC with Pressure Shift
# isobaric coefficient of expansion per entry

Use these answered entries as a reference point.
In [3]: df
Out[3]:
                      molecule                       propertyname  endpointresult
0                          CCO  isobaric coefficient of expansion     0.00105 1/K
1                         CCCO  isobaric coefficient of expansion    0.000975 1/K
2                  CCCCCCCCCCO  isobaric coefficient of expansion    0.000781 1/K
3                   CCCCCCCCCO  isobaric coefficient of expansion    0.000792 1/K
4  CCCC(C)O (stereo not drawn)  isobaric coefficient of expansion     0.00101 1/K

For this molecule ( `CCCCCCO` ), measured isobaric coefficient of expansion is 0.000854 1/K

Reported isobaric coefficient of expansion for `CCCCCCCO` was 0.000831 1/K

The molecule listed as `CCCCCCCCO` shows isobaric coefficient of expansion equal to 0.000805 1/K

---

Test: isobaric coefficient of expansion
Conditions: 338.15 K; 5000 kPa; Liquid; DSC with Pressure Shift
propertyName: isobaric coefficient of expansion

Recorded results for 5 compounds are shown here.
>>> df
      compound  endpointresult
0     CCC(O)CC     0.00115 1/K
1  CCCCCCCCCCO    0.000869 1/K
2      CCCCCCO    0.000958 1/K
3    CCCCCCCCO      0.0009 1/K
4   CCCCCCCCCO    0.000886 1/K

The measured isobaric coefficient of expansion associated with `CCCCCN` reads 0.0012 1/K

Input `CCO` . Output isobaric coefficient of expansion: 0.00121 1/K

Reported isobaric coefficient of expansion ( CCCC(C)O (stereo not drawn) ) = 0.00114 1/K

---

# Lookup of reported isobaric coefficient of expansion keyed by entry
Assay: isobaric coefficient of expansion
Conditions: 328.15 K; 40000 kPa; Liquid; DSC with Pressure Shift

>>> print(df.to_string())
                        compound  endpointresult
0                       CCC(O)CC    0.000949 1/K
1                         CCCCCO     0.00079 1/K
2                           CCCO    0.000878 1/K
3                     CCCCCCCCCO    0.000728 1/K
4  CCCC(C)O (stereo unspecified)    0.000914 1/K
5                         CCCCCN    0.000971 1/K
6                       CCCCCCCO    0.000756 1/K
7                    CCCCCCCCCCO    0.000719 1/K

isobaric coefficient of expansion recorded for this compound, `CCCCCCO` , is 0.000776 1/K

For this compound ( `CCCCCCCCO` ), measured isobaric coefficient of expansion is 0.000735 1/K

The compound identified as `CCO` registered its isobaric coefficient of expansion at 0.000936 1/K
